Test: Plasma pharmacokinetics after single IV, IP or PO dose
Assay type: in vivo, male CD-1 mice
Conditions: mouse; IP 10 mg/kg, male CD-1 mice, plasma
recorded_metric: AUC(0-inf) (ng·h/mL)
Just the number please, in ng·h/mL, no unit attached.

> print(dat)
                                   compound  recorded.metric  quantitative.readout
1  C[C@]12CC[C@H](O)CC1=CC[C@@H]1[C@@H]2CC[C@]2(C)C(n3cnc4ccccc43)=CC[C@@H]12 [Galeterone]       AUC(0-inf)                   111

Please look at the following compound next.
# input Requested field: AUC(0-inf). Item: C[C@]12CC[C@H](OCc3ccncc3)CC1=CCC1C2CC[C@]2(C)C(n3cnc4ccccc43)=CCC12 (some centres unmarked) [VNPP414]
# output 8600

---

Experiment: Plasma pharmacokinetics after single IV, IP or PO dose
Format: in vivo, male CD-1 mice
Settings: mouse, in vivo; PO 10 mg/kg, male CD-1 mice, plasma
recorded_metric: Cmax (ng/mL)
Just the number please, in ng/mL, no unit attached.

# input Requested field: Cmax. Item: C[C@]12CC[C@H](n3ccnc3)CC1=CCC1C2CC[C@]2(C)C(n3cnc4ccccc43)=CCC12 (stereo partly drawn) [VNPP433-3β]
# output 706
